test: total protein half-life in vivo (active degradation + dilution); higher = more stable protein; conditions: wild type E. coli NCM3722; growth: C-lim chemostat; doubling time 12 h
Lab note: compare total protein half-life in vivo against 10 h. Equal or greater, write true. Smaller, write false.

ordered_residues=MTNQPTEIAIVGGGMVGGALALGLAQHGFAVTVIEHAEPAPFVADSQPDVRISAISAASVSLLKGLGVWDAVQAMRCHPYRRLETWEWETAHVVFDAAELKLPLLGYMVENTVLQQALWQALEAHPKVTLRVPGSLIALHRHDDLQELELKGGEVIRAKLVIGADGANSQVRQMAGIGVHAWQYAQSCMLISVQCENDPGDSTWQQFTPDGPRAFLPLFDNWASLVWYDSPARIRQLQNMNMAQLQAEIAKHFPSRLGYVTPLAAGAFPLTRRHALQYVQPGLALVGDAAHTIHPLAGQGVNLGYRDVDALIDVLVNARSYGEAWASYPVLKRYQMRRMADNFIMQSGMDLFYAGFSNNLPPLRFMRNLGLMAAERAGVLKRQALKYALGL discrete_label=false
ordered_residues=MDLRDLKTFLHLAESRHFGRSARAMHVSPSTLSRQIQRLEEDLGQPLFVRDNRTVTLTEAGEELRVFAQQTLLQYQQLRHTIDQQGPSLSGELHIFCSVTAAYSHLPPILDRFRAEHPSVEIKLTTGDAADAMEKVVTGEADLAIAGKPETLPGAVAFSMLENLAVVLIAPALPCPVRNQVSVEKPDWSTVPFIMADQGPVRRRIELWFRRNKISNPMIYATVGGHEAMVSMVALGCGVALLPEVVLENSPEPVRNRVMILERSDEKTPFELGVCAQKKRLHEPLIEAFWKILPNHK discrete_label=true
ordered_residues=MTKQVKIYHNPRCSKSRETLNLLKENGVEPEVVLYLETPADAATLRDLLKILGMNSARELMRQKEDLYKELNLADSSLSEEALIQAMVDNPKLMERPIVVANGKARIGRPPEQVLEIVG discrete_label=false
ordered_residues="MQAEILLTLKLQQKLFADPRRISLLKHIALSGSISQGAKDAGISYKSAWDAINEMNQLSEHILVERATGGKGGGGAVLTRYGQRLIQLYDLLAQIQQKAFDVLSDDDALPLNSLLAAISRFSLQTSARNQWFGTITARDHDDVQQHVDVLLADGKTRLKVAITAQSGARLGLDEGKEVLILLKAPWVGITQDEAVAQNADNQLPGIISHIERGAEQCEVLMALPDGQTLCATVPVNEATSLQQGQNVTAYFNADSVIIATLC [P0A9G8]" discrete_label=true
ordered_residues=MTLQQQIIKALGAKPQINAEEEIRRSVDFLKSYLQTYPFIKSLVLGISGGQDSTLAGKLCQMAINELRLETGNESLQFIAVRLPYGVQADEQDCQDAIAFIQPDRVLTVNIKGAVLASEQALREAGIELSDFVRGNEKARERMKAQYSIAGMTSGVVVGTDHAAEAITGFFTKYGDGGTDINPLYRLNKRQGKQLLAALACPEHLYKKAPTADLEDDRPSLPDEVALGVTYDNIDDYLEGKNVPQQVARTIENWYLKTEHKRRPPITVFDDFWKK discrete_label=true
ordered_residues=MSDTNYAVIYDLHSHTTASDGCLTPEALVHRAVEMRVGTLAITDHDTTAAIAPAREEISRSGLALNLIPGVEISTVWENHEIHIVGLNIDITHPLMCEFLAQQTERRNQRAQLIAERLEKAQIPGALEGAQRLAQGGAVTRGHFARFLVECGKASSMADVFKKYLARGKTGYVPPQWCTIEQAIDVIHHSGGKAVLAHPGRYNLSAKWLKRLVAHFAEHHGDAMEVAQCQQSPNERTQLAALARQHHLWASQGSDFHQPCPWIELGRKLWLPAGVEGVWQLWEQPQNTTEREL discrete_label=false
